Source listed as paper PMC6385020.

# Tested on: CCD19Lu normal lung cell line
# Method: Cell growth (proliferation), 96 h treatment
# Type: cell-based, human
# Procedure: The ovarian carcinoma cell lines and human normal lung cells were purchased from ATCC and were grown in complete RPMI medium (ovarian) and DMEM (human lung cells) supplemented with 10% fetal calf serum, in the presence of penicillin, streptomycin. The resistance of A2780cis cells to cisplatin was maintained by monthly treatment with 1 µM cisplatin for 4 days. […] Cellular growth was quantified using the particle counter MOXI (VWR).
pIC50: −log10 of the molar value.
Assign 1 to entries whose pIC50 meets or exceeds 6; assign 0 to the rest.

Worked set:
F[P-](F)(F)(F)(F)F.[Pt+][C]#Cc1ccccc1.c1ccc(-c2cccc(-c3ccccn3)n2)nc1 :: 1
CN(C)CCCNCc1ccc(-c2cc(-c3ccccn3)nc(-c3ccccn3)c2)cc1.[Cl-].[Cl][Pt+] :: 0
[Cl-].[Cl][Pt+].c1ccc(-c2cccc(-c3ccccn3)n2)nc1 :: 0
[Cl-].[Cl][Pt+].c1ccc(-c2cc(-c3ccc(OCCN4CCCC4)cc3)nc(-c3ccccn3)n2)nc1 :: 0
Cc1ccc(-c2cc(-c3ccccn3)nc(-c3ccccn3)c2)cc1.[Cl-].[Cl][Pt+] :: 0

Could you now look at the following compound, please?
Q. Hi, just wondering whether N.N.[Cl][Pt][Cl] [cisplatin, reference compound] shows pIC50 of 6 or higher.
A. 1

====

# System: A2780cis cisplatin-resistant ovarian cancer cell line
# Method: Cell growth (proliferation), 96 h treatment
# Format: cell-based, human
# Experimental Setup: 96 h treatment
Metric: Resistance Factor (IC50ratio A2780cis/A2780)
Answer with a number only.

Q. # get_value(readout='Resistance Factor (IC50ratio A2780cis/A2780)', item= Cc1ccc(-c2cc(-c3ccccn3)nc(-c3ccccn3)c2)cc1.[Cl-].[Cl][Pt+] [Pt-ttpy] )
A. 1.0

Q. What would you report for [Cl-].[Cl][Pt+].c1ccc(-c2cc(-c3ccc(OCCN4CCCC4)cc3)nc(-c3ccccn3)n2)nc1 [Pt-cpym] ?
A. 1.3

====

# Tested on: c-myc G4
# Method: TO G4-FID assay
# Assay type: binding
# Experimental Setup: TO 2 eq, K+100 buffer
// assign class 1 if % of TO displacement at 1 µM of ligand falls strictly below 60%, else class 0 (ties count as class 0)

Worked set:
C[n+]1cc(NC(=O)c2ccc3ccc4ccc(C(=O)Nc5cc6ccccc6[n+](C)c5)nc4c3n2)cc2ccccc21 [PhenDC3, reference compound] :: class 0
CN(C)CCCNCc1ccc(-c2cc(-c3ccccn3)nc(-c3ccccn3)c2)cc1.[Cl-].[Cl][Pt+] [Pt-ctpy] :: class 0
[Cl-].[Cl][Pt+].c1ccc(-c2cccc(-c3ccccn3)n2)nc1 [Pt-tpy] :: class 1
[Cl-].[Cl][Pt+].c1ccc(-c2cc(-c3ccc(OCCN4CCCC4)cc3)nc(-c3ccccn3)n2)nc1 [Pt-cpym] :: class 1

Q. # TODO verify % of TO displacement at 1 µM of ligand < 60% strictly for this compound: Cc1ccc(-c2cc(-c3ccccn3)nc(-c3ccccn3)c2)cc1.[Cl-].[Cl][Pt+] [Pt-ttpy]
A. class 0

====

Catalogue of % of TOPRO3 displacement at 1 µM of ligand readings, one per entry.
# Test system: CEB25-WT minisatellite sequence G4
# Method: TO-PRO-3 G4-FID assay
# Assay type: binding
# Experimental Setup: TO-PRO-3 2 eq, K+100 buffer
Please reply with the bare figure in % and do not write the unit itself.

CN(C)CCCNCc1ccc(-c2cc(-c3ccccn3)nc(-c3ccccn3)c2)cc1.[Cl-].[Cl][Pt+] :: 76
CN(C)c1ccc(/C=C/c2cc(-c3ccccn3)nc(-c3ccccn3)n2)cc1.[Cl-].[Cl][Pt+] :: 23
Cc1ccc(-c2cc(-c3ccccn3)nc(-c3ccccn3)c2)cc1.[Cl-].[Cl][Pt+] :: 62

Q. # returns recorded % of TOPRO3 displacement at 1 µM of ligand (system: CEB25-WT minisatellite sequence G4) for C[n+]1cc(NC(=O)c2ccc3ccc4ccc(C(=O)Nc5cc6ccccc6[n+](C)c5)nc4c3n2)cc2ccccc21 [PhenDC3, reference compound]
A. 88

====

# System: 21CTA human telomeric sequence variant G4
# Type: binding
# Experimental Setup: TO-PRO-3 2 eq, K+100 buffer
Catalogue of % of TOPRO3 displacement at 1 µM of ligand readings, one per entry.
Please reply with the bare figure in % and do not write the unit itself.

[Cl-].[Cl][Pt+].c1ccc(-c2cccc(-c3ccccn3)n2)nc1 :: 23
F[P-](F)(F)(F)(F)F.[Pt+][C]#Cc1ccccc1.c1ccc(-c2cccc(-c3ccccn3)n2)nc1 :: 3
CN(C)c1ccc(/C=C/c2cc(-c3ccccn3)nc(-c3ccccn3)n2)cc1.[Cl-].[Cl][Pt+] :: 32

Could you now look at the following compound, please?
Q. # get_value(readout='% of TOPRO3 displacement at 1 µM of ligand', item= CN(C)CCCNCc1ccc(-c2cc(-c3ccccn3)nc(-c3ccccn3)c2)cc1.[Cl-].[Cl][Pt+] )
A. 83

====

# System: G4 structures (22AG, c-myc, 21CTA, CEB25-WT)
# Method: TO-PRO-3-G4-FID assay, G4 structures
# Type: binding
Metric: TO-PRO-3 displacement

F[P-](F)(F)(F)(F)F.[Pt+][C]#Cc1ccccc1.c1ccc(-c2cccc(-c3ccccn3)n2)nc1 [Pt(PA)-tpy] :: weak displacement
[Cl-].[Cl][Pt+].c1ccc(-c2cccc(-c3ccccn3)n2)nc1 [Pt-tpy] :: weak displacement
[Cl-].[Cl][Pt+].c1ccc(-c2cc(-c3ccc(OCCN4CCCC4)cc3)nc(-c3ccccn3)n2)nc1 [Pt-cpym] :: weak displacement
CN(C)c1ccc(/C=C/c2cc(-c3ccccn3)nc(-c3ccccn3)n2)cc1.[Cl-].[Cl][Pt+] [Pt-vpym] :: 30%

====

# System: c-myc G4
# Method: TO-PRO-3 G4-FID assay
# Type: binding
# Experimental Setup: TO-PRO-3 2 eq, K+100 buffer
Metric: % of TOPRO3 displacement at 1 µM of ligand (%)
Please reply with the bare figure in % and do not write the unit itself.

Consider the reported % of TOPRO3 displacement at 1 µM of ligand for these molecules:
CN(C)c1ccc(/C=C/c2cc(-c3ccccn3)nc(-c3ccccn3)n2)cc1.[Cl-].[Cl][Pt+] :: 32
[Cl-].[Cl][Pt+].c1ccc(-c2cccc(-c3ccccn3)n2)nc1 :: 32
C[n+]1cc(NC(=O)c2ccc3ccc4ccc(C(=O)Nc5cc6ccccc6[n+](C)c5)nc4c3n2)cc2ccccc21 [PhenDC3, reference compound] :: 73
CN(C)CCCNCc1ccc(-c2cc(-c3ccccn3)nc(-c3ccccn3)c2)cc1.[Cl-].[Cl][Pt+] :: 58

Q. # returns recorded % of TOPRO3 displacement at 1 µM of ligand (system: c-myc G4) for Cc1ccc(-c2cc(-c3ccccn3)nc(-c3ccccn3)c2)cc1.[Cl-].[Cl][Pt+]
A. 76

====

# Test system: c-myc G4
# Method: PhenDV G4-FID assay
# Assay type: binding
# Experimental Setup: PhenDV 1.5 eq, K+100 buffer
Metric: % of PhenDV displacement at 1 µM of ligand (%)
Please reply with the bare figure in % and do not write the unit itself.

Consider the reported % of PhenDV displacement at 1 µM of ligand for these molecules:
CN(C)CCCNCc1ccc(-c2cc(-c3ccccn3)nc(-c3ccccn3)c2)cc1.[Cl-].[Cl][Pt+] [Pt-ctpy] :: 29
[Cl-].[Cl][Pt+].c1ccc(-c2cccc(-c3ccccn3)n2)nc1 [Pt-tpy] :: 5
F[P-](F)(F)(F)(F)F.[Pt+][C]#Cc1ccccc1.c1ccc(-c2cccc(-c3ccccn3)n2)nc1 [Pt(PA)-tpy] :: 2
Cc1ccc(-c2cc(-c3ccccn3)nc(-c3ccccn3)c2)cc1.[Cl-].[Cl][Pt+] [Pt-ttpy] :: 22
C[n+]1cc(NC(=O)c2ccc3ccc4ccc(C(=O)Nc5cc6ccccc6[n+](C)c5)nc4c3n2)cc2ccccc21 [PhenDC3, reference compound] :: 85

Could you now look at the following molecule, please?
Q. # get_value(readout='% of PhenDV displacement at 1 µM of ligand', item= [Cl-].[Cl][Pt+].c1ccc(-c2cc(-c3ccc(OCCN4CCCC4)cc3)nc(-c3ccccn3)n2)nc1 [Pt-cpym] )
A. 3

====

Catalogue of % of TO displacement at 1 µM of ligand readings, one per entry.
# Test system: 21CTA human telomeric sequence variant G4
# Assay type: binding
# Experimental Setup: TO 2 eq, K+100 buffer
Please reply with the bare figure in % and do not write the unit itself.

Cc1ccc(-c2cc(-c3ccccn3)nc(-c3ccccn3)c2)cc1.[Cl-].[Cl][Pt+] :: 87
CN(C)CCCNCc1ccc(-c2cc(-c3ccccn3)nc(-c3ccccn3)c2)cc1.[Cl-].[Cl][Pt+] :: 93
C[n+]1cc(NC(=O)c2ccc3ccc4ccc(C(=O)Nc5cc6ccccc6[n+](C)c5)nc4c3n2)cc2ccccc21 [PhenDC3, reference compound] :: 95
F[P-](F)(F)(F)(F)F.[Pt+][C]#Cc1ccccc1.c1ccc(-c2cccc(-c3ccccn3)n2)nc1 :: 52
[Cl-].[Cl][Pt+].c1ccc(-c2cccc(-c3ccccn3)n2)nc1 :: 24

Q. # get_value(readout='% of TO displacement at 1 µM of ligand', item= [Cl-].[Cl][Pt+].c1ccc(-c2cc(-c3ccc(OCCN4CCCC4)cc3)nc(-c3ccccn3)n2)nc1 )
A. 82
